For each of the compounds below, state its selective drug sensitivity score.
# Test system: NALL-1
# assay.summary: selective drug sensitivity score (sDSS, relative to normal bone marrow) (sDSS (score)); higher = more potent and effective on the cell line relative to normal bone marrow cells;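 also: ALL cell lines in 384-well plates, five doses spanning 10,000-fold, each plate scaled between vehicle and 100 µmol/L benzalkonium chloride controls, sDSS an adapted area-under-curve metric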
# assay.conditions: 72 h

q: Please give the measured selective drug sensitivity score for this compound: COc1cc(Br)c(Nc2nc(-c3c(C)nc4ncccn34)cs2)c(Br)c1 [PTC-209] (top concentration 10000 nM)
a: -1.78

q: Give the measured selective drug sensitivity score of Cc1nc(C(=O)NCC(=O)O)c(O)c2ccc(Oc3ccccc3)cc12 [Roxadustat] (top concentration 10000 nM) .
a: -1.12

q: What value of measured selective drug sensitivity score is listed for COc1cc2c(Oc3ccc4[nH]c(C)cc4c3F)ncnc2cc1OCCCN1CCCC1 [Cediranib] (top concentration 1000 nM) ?
a: 0

q: I am curious: what selective drug sensitivity score value has been reported for CNC(=O)c1cc(Oc2ccc(NC(=O)Nc3ccc(Cl)c(C(F)(F)F)c3)cc2)ccn1 [Sorafenib] (top concentration 1000 nM) ?
a: 0

q: Could you tell me which selective drug sensitivity score is on file for Cc1ccc(F)c(NC(=O)Nc2ccc(-c3cccc4[nH]nc(N)c34)cc2)c1 [Linifanib] (top concentration 1000 nM) ?
a: -1.12

q: Please look up its selective drug sensitivity score: CNCc1ccc(-c2[nH]c3cc(F)cc4c3c2CCNC4=O)cc1 [Rucaparib] (top concentration 10000 nM)
a: -0.58

q: Request the reported selective drug sensitivity score associated with CC(C)(C#N)c1cc(Cn2cncn2)cc(C(C)(C)C#N)c1 [Anastrozole] (top concentration 10000 nM)
a: 0

* * *

# System: MOLT-4
# assay.summary: selective drug sensitivity score (sDSS, relative to normal bone marrow) (sDSS (score)); higher = more potent and effective on the cell line relative to normal bone marrow cells
# assay.conditions: 72 h
Assign selective drug sensitivity score to each entry below.
Hey, just send me the number, nothing else.

q: Report selective drug sensitivity score for COC[C@H](NC(=O)c1cnc(C)s1)C(=O)N[C@@H](COC)C(=O)N[C@@H](Cc1ccccc1)C(=O)[C@@]1(C)CO1 [Oprozomib] (top concentration 2500 nM) please.
a: 12.6

q: So what's the measured selective drug sensitivity score for this one? N#CC(c1ccnc(OCc2ccc(CN3CCOCC3)cc2)n1)c1nc2ccccc2s1 (stereo not drawn) [Bentamapimod] (top concentration 10000 nM)
a: 1.74

q: // lookup selective drug sensitivity score for COc1cc(C)[nH]c(=O)c1CNC(=O)c1c(C)n([C@H](C)C2CCOCC2)c2ccccc12 [CPI-360] (top concentration 10000 nM)
a: 0

* * *

# Tested on: P30-OHKUBO
# assay.summary: selective drug sensitivity score (sDSS, relative to normal bone marrow) (sDSS (score)); higher = more potent and effective on the cell line relative to normal bone marrow cells
# assay.conditions: 72 h
Kindly supply the reported selective drug sensitivity score values for the records listed here.
Output spec: single numeric token, no unit.

q: Need selective drug sensitivity score, item CC(C)C(=O)Nc1ccc([N+](=O)[O-])c(C(F)(F)F)c1 [Flutamide] (top concentration 10000 nM)
a: 0.94

q: Please look up its selective drug sensitivity score: N#CCNC(=O)c1ccc(-c2ccnc(Nc3ccc(N4CCOCC4)cc3)n2)cc1 [Momelotinib] (top concentration 10000 nM)
a: 1.58

q: # input compound: CCc1cnn2c(NCc3ccc[n+]([O-])c3)cc(N3CCCC[C@H]3CCO)nc12 [Dinaciclib] (top concentration 1000 nM) ; wanted: its selective drug sensitivity score
a: 0.26

q: Item under review: CC1=C2C[C@H]3[C@@H](CC[C@@H]4C[C@H](NS(C)(=O)=O)CC[C@@]43C)[C@@H]2CC[C@@]2(C1)O[C@@H]1C[C@H](C)CN[C@H]1[C@H]2C [Saridegib] (top concentration 10000 nM) . Reported selective drug sensitivity score?
a: -0.66

q: What selective drug sensitivity score value was documented for this compound, CCCN(CCC)C(=O)C1=Cc2ccc(-c3ccc(C(=O)N4CCCC4)cc3)cc2N=C(N)C1 [Motolimod] (top concentration 10000 nM) ?
a: -1.58

q: Entry under review: Cn1c(Nc2ccc(C(F)(F)F)cc2)nc2cc(Oc3ccnc(-c4ncc(C(F)(F)F)[nH]4)c3)ccc21 [NVP-RAF265] (top concentration 1000 nM) . Reported selective drug sensitivity score?
a: 4.38

q: Item N[C@@H]1CCCN(c2c(/C=C3\SC(=O)NC3=O)cccc2-c2ccccc2)C1 [AZD1208] (top concentration 10000 nM) has what recorded selective drug sensitivity score?
a: -1.1

q: Returns the measured selective drug sensitivity score for the input compound. Input: COc1cc(NS(C)(=O)=O)ccc1Nc1c2ccccc2nc2ccccc12 [Amsacrine] (top concentration 10000 nM)
a: 13

q: Entry CCCOc1ccn2c(C(C)=O)cc(-c3ccccc3S(C)(=O)=O)c2c1 [GSK2801] (top concentration 10000 nM) : reported selective drug sensitivity score = ?
a: -0.36

q: Fill blank: measured selective drug sensitivity score of the compound O=C(Nc1cccnc1)N1CCC(Cc2cccc(Oc3ccc(C(F)(F)F)cn3)c2)CC1 [PF-3845] (top concentration 10000 nM) is ____.
a: 0.46

q: // selective drug sensitivity score lookup, key: CC(C)c1cc(-c2n[nH]c(=O)n2-c2ccc3c(ccn3C)c2)c(O)cc1O [Ganetespib] (top concentration 1000 nM)
a: 2.24

q: Bench note: what selective drug sensitivity score did CN(CC(=O)N(Cc1ccc(C2CCCCC2)cc1)c1ccc(C(=O)O)cc1)S(=O)(=O)c1c(F)c(F)c(F)c(F)c1F [SH-4-54] (top concentration 25000 nM) show?
a: -5.24

q: What measured selective drug sensitivity score goes with Cc1ncc(-c2ccnc(Nc3ccc(S(C)(=O)=O)cc3)n2)n1C(C)C [AZD-5438] (top concentration 10000 nM) ?
a: 0.84
